# credit: ChEMBL document CHEMBL4138153

- TESTED_ON: Amine oxidase [flavin-containing] A (Rattus norvegicus, UniProt P21396)
- Sequence (P21396 whole entry): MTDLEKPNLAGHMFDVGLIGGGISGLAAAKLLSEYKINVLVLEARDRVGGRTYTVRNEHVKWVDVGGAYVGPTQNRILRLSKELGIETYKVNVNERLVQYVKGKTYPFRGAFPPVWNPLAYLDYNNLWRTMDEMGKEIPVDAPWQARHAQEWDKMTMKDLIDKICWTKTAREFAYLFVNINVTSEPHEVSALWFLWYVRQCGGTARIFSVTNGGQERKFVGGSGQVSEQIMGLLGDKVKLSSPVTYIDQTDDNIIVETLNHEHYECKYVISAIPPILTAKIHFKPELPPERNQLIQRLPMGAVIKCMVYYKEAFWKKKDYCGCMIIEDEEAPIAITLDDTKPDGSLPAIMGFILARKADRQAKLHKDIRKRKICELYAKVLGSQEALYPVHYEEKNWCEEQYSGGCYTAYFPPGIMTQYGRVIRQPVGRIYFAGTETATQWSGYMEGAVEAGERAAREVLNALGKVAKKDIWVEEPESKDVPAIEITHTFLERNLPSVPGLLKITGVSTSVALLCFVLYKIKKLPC
- ASSAY_COMMENT: Inhibition of MAO-A in rat liver mitochondria using p-tyramine as substrate preincubated for 10 mins followed by substrate addition measured after 30 mins in presence of MAO-B inhibitor deprenyl by Amplex red dye-based fluorescence assay
pIC50: −log10 of the molar value.
So basically: pIC50 at 5 or higher? That is y. Lower than 5? That is n.

Query :: Does the reported pIC50 for "O=C(NN=C1CCCC1)C1=C(O)c2ccccc2S(=O)(=O)N1Cc1ccccc1" fall at or above the 5 mark?
Result :: n

Query :: Does the reported pIC50 for "C/C(=N\NC(=O)C1=C(O)c2ccccc2S(=O)(=O)N1)c1ccc(Cl)cc1" fall at or above the 5 mark?
Result :: n

Query :: Does the reported pIC50 for "C/C(=N\NC(=O)C1=C(O)c2ccccc2S(=O)(=O)N1)c1ccccc1" fall at or above the 5 mark?
Result :: y

Query :: Does the reported pIC50 for "C/C(=N\NC(=O)C1=C(O)c2ccccc2S(=O)(=O)N1Cc1ccccc1)c1ccc(Cl)cc1" fall at or above the 5 mark?
Result :: y

Query :: Does the reported pIC50 for "O=C(N/N=C/c1ccccc1O)C1=C(O)c2ccccc2S(=O)(=O)N1" fall at or above the 5 mark?
Result :: y

Query :: Does the reported pIC50 for "CCOc1ccc(/C=N/NC(=O)C2=C(O)c3ccccc3S(=O)(=O)N2)cc1" fall at or above the 5 mark?
Result :: n

Query :: Does the reported pIC50 for "CN1C(C(=O)NN)=C(O)c2ccccc2S1(=O)=O" fall at or above the 5 mark?
Result :: y

Query :: Does the reported pIC50 for "CCOc1ccc(/C=N/NC(=O)C2=C(O)c3ccccc3S(=O)(=O)N2C)cc1" fall at or above the 5 mark?
Result :: y

Query :: Does the reported pIC50 for "CC(C)c1ccc(/C=N/NC(=O)C2=C(O)c3ccccc3S(=O)(=O)N2C)cc1" fall at or above the 5 mark?
Result :: y

Query :: Does the reported pIC50 for "O=C(N/N=C/c1ccccc1O)C1=C(O)c2ccccc2S(=O)(=O)N1Cc1ccccc1" fall at or above the 5 mark?
Result :: n

Query :: Does the reported pIC50 for "CN1C(C(=O)N/N=C/c2cccc(Cl)c2)=C(O)c2ccccc2S1(=O)=O" fall at or above the 5 mark?
Result :: n

Query :: Does the reported pIC50 for "COC(=O)C1=C(O)c2ccccc2S(=O)(=O)N1" fall at or above the 5 mark?
Result :: y

Query :: Does the reported pIC50 for "O=C(N/N=C/c1ccccc1)C1=C(O)c2ccccc2S(=O)(=O)N1" fall at or above the 5 mark?
Result :: y

Query :: Does the reported pIC50 for "O=C(NN=C1CCCC1)C1=C(O)c2ccccc2S(=O)(=O)N1" fall at or above the 5 mark?
Result :: n

Query :: Does the reported pIC50 for "C/C(=N\NC(=O)C1=C(O)c2ccccc2S(=O)(=O)N1Cc1ccccc1)c1ccc(F)cc1" fall at or above the 5 mark?
Result :: n

Query :: Does the reported pIC50 for "O=C(N/N=C/c1cccc(Cl)c1)C1=C(O)c2ccccc2S(=O)(=O)N1Cc1ccccc1" fall at or above the 5 mark?
Result :: y

Query :: Does the reported pIC50 for "CN1C(C(=O)N/N=C/c2ccccc2)=C(O)c2ccccc2S1(=O)=O" fall at or above the 5 mark?
Result :: n

Query :: Does the reported pIC50 for "O=C(N/N=C/c1cccc(Cl)c1)C1=C(O)c2ccccc2S(=O)(=O)N1" fall at or above the 5 mark?
Result :: y

Query :: Does the reported pIC50 for "Cc1ccc(/C=N/NC(=O)C2=C(O)c3ccccc3S(=O)(=O)N2C)cc1" fall at or above the 5 mark?
Result :: y

Query :: Does the reported pIC50 for "C/C(=N\NC(=O)C1=C(O)c2ccccc2S(=O)(=O)N1)c1ccc(F)cc1" fall at or above the 5 mark?
Result :: n

Query :: Does the reported pIC50 for "O=C(N/N=C/c1ccc(Cl)cc1)C1=C(O)c2ccccc2S(=O)(=O)N1Cc1ccccc1" fall at or above the 5 mark?
Result :: n

Query :: Does the reported pIC50 for "COC(=O)CN1C(=O)c2ccccc2S1(=O)=O" fall at or above the 5 mark?
Result :: y

Query :: Does the reported pIC50 for "Cc1ccc(/C=N/NC(=O)C2=C(O)c3ccccc3S(=O)(=O)N2Cc2ccccc2)cc1" fall at or above the 5 mark?
Result :: n

Query :: Does the reported pIC50 for "CN1C(C(=O)NN=C2CCCC2)=C(O)c2ccccc2S1(=O)=O" fall at or above the 5 mark?
Result :: y

Query :: Does the reported pIC50 for "CC(C)c1ccc(/C=N/NC(=O)C2=C(O)c3ccccc3S(=O)(=O)N2Cc2ccccc2)cc1" fall at or above the 5 mark?
Result :: y

Query :: Does the reported pIC50 for "COC(=O)C1=C(O)c2ccccc2S(=O)(=O)N1C" fall at or above the 5 mark?
Result :: n

Query :: Does the reported pIC50 for "C/C(=N\NC(=O)C1=C(O)c2ccccc2S(=O)(=O)N1Cc1ccccc1)c1ccccc1" fall at or above the 5 mark?
Result :: y

Query :: Does the reported pIC50 for "NNC(=O)C1=C(O)c2ccccc2S(=O)(=O)N1" fall at or above the 5 mark?
Result :: y

Query :: Does the reported pIC50 for "O=C(N/N=C/c1ccccc1)C1=C(O)c2ccccc2S(=O)(=O)N1Cc1ccccc1" fall at or above the 5 mark?
Result :: n

Query :: Does the reported pIC50 for "NNC(=O)C1=C(O)c2ccccc2S(=O)(=O)N1Cc1ccccc1" fall at or above the 5 mark?
Result :: n

Query :: Does the reported pIC50 for "C/C(=N\NC(=O)C1=C(O)c2ccccc2S(=O)(=O)N1C)c1ccccc1" fall at or above the 5 mark?
Result :: y

Query :: Does the reported pIC50 for "COc1ccc(/C=N/NC(=O)C2=C(O)c3ccccc3S(=O)(=O)N2C)cc1" fall at or above the 5 mark?
Result :: n

Query :: Does the reported pIC50 for "COc1ccc(/C=N/NC(=O)C2=C(O)c3ccccc3S(=O)(=O)N2)cc1" fall at or above the 5 mark?
Result :: y

Query :: Does the reported pIC50 for "CCOc1ccc(/C=N/NC(=O)C2=C(O)c3ccccc3S(=O)(=O)N2Cc2ccccc2)cc1" fall at or above the 5 mark?
Result :: n

Query :: Does the reported pIC50 for "CC(C)c1ccc(/C=N/NC(=O)C2=C(O)c3ccccc3S(=O)(=O)N2)cc1" fall at or above the 5 mark?
Result :: n

Query :: Does the reported pIC50 for "CN1C(C(=O)N/N=C/c2ccc(Cl)cc2)=C(O)c2ccccc2S1(=O)=O" fall at or above the 5 mark?
Result :: y

Query :: Does the reported pIC50 for "O=C(N/N=C/c1ccc(Cl)cc1)C1=C(O)c2ccccc2S(=O)(=O)N1" fall at or above the 5 mark?
Result :: y

Query :: Does the reported pIC50 for "COc1ccc(/C=N/NC(=O)C2=C(O)c3ccccc3S(=O)(=O)N2Cc2ccccc2)cc1" fall at or above the 5 mark?
Result :: y

* * *

- Species: Rattus norvegicus
- ASSAY_COMMENT: Selectivity index, ratio of IC50 for MAO-A in rat liver mitochondria to IC50 for MAO-B in rat liver mitochondria
ASSAY_ENDPOINT: Ratio IC50
Give the figure only, with no unit attached.

Query :: Quick one: Ratio IC50 for "CN1C(C(=O)N/N=C/c2ccc(Cl)cc2)=C(O)c2ccccc2S1(=O)=O" ?
Result :: 0.39

Query :: Quick one: Ratio IC50 for "COc1ccc(/C=N/NC(=O)C2=C(O)c3ccccc3S(=O)(=O)N2C)cc1" ?
Result :: 0.82

Query :: Quick one: Ratio IC50 for "O=C(N/N=C/c1ccc(Cl)cc1)C1=C(O)c2ccccc2S(=O)(=O)N1" ?
Result :: 0.57

Query :: Quick one: Ratio IC50 for "Cc1ccc(/C=N/NC(=O)C2=C(O)c3ccccc3S(=O)(=O)N2C)cc1" ?
Result :: 0.2

Query :: Quick one: Ratio IC50 for "O=C(N/N=C/c1cccc(Cl)c1)C1=C(O)c2ccccc2S(=O)(=O)N1" ?
Result :: 0.01

Query :: Quick one: Ratio IC50 for "COc1ccc(/C=N/NC(=O)C2=C(O)c3ccccc3S(=O)(=O)N2)cc1" ?
Result :: 3.02

Query :: Quick one: Ratio IC50 for "C/C(=N\NC(=O)C1=C(O)c2ccccc2S(=O)(=O)N1Cc1ccccc1)c1ccccc1" ?
Result :: 0.54

Query :: Quick one: Ratio IC50 for "CN1C(C(=O)N/N=C/c2cccc(Cl)c2)=C(O)c2ccccc2S1(=O)=O" ?
Result :: 0.78

Query :: Quick one: Ratio IC50 for "CC(C)c1ccc(/C=N/NC(=O)C2=C(O)c3ccccc3S(=O)(=O)N2Cc2ccccc2)cc1" ?
Result :: 0.13

Query :: Quick one: Ratio IC50 for "NNC(=O)C1=C(O)c2ccccc2S(=O)(=O)N1" ?
Result :: 0.36
